tested on: human breast cancer cells (1590); test: MTT tumor cell proliferation inhibition test, 1590; format: cell-based; conditions: 48 hours treatment, 1590 cells, read-out: Half Inhibitory Concentration IC50, 1590
// returns no unless IC50 is strictly below 40 µM, in which case yes

Query block: Say whether its IC50 is strictly beneath 40 µM. Entry: Cc1cccc(/C=C\C(=O)OC2CCN3[C@@H]4C[C@@H](C[C@@H]3C2)N2CCCC[C@@H]2C4)c1 (stereo partly drawn) [Compound J]
Result block: no

Query block: Say whether its IC50 is strictly beneath 40 µM. Entry: Cc1cc(/C=C\C(=O)OC2CCN3[C@@H]4C[C@@H](C[C@@H]3C2)N2CCCC[C@@H]2C4)ccc1O (stereo partly drawn) [Compound I]
Result block: no

Query block: Say whether its IC50 is strictly beneath 40 µM. Entry: COc1cc(/C=C\C(=O)OC2CCN3[C@@H]4C[C@@H](C[C@@H]3C2)N2CCCC[C@@H]2C4)cc(OC)c1O (stereo partly drawn) [Compound G]
Result block: no

Query block: Say whether its IC50 is strictly beneath 40 µM. Entry: O=C(/C=C\c1cccc(O)c1)OC1CCN2[C@@H]3C[C@@H](C[C@@H]2C1)N1CCCC[C@@H]1C3 (stereo partly drawn) [Compound C]
Result block: no

Query block: Say whether its IC50 is strictly beneath 40 µM. Entry: COc1cc(/C=C\C(=O)OC2CCN3[C@@H]4C[C@@H](C[C@@H]3C2)N2CCCC[C@@H]2C4)ccc1O (stereo partly drawn) [Compound F]
Result block: no

Query block: Say whether its IC50 is strictly beneath 40 µM. Entry: O=C(/C=C\c1ccc(Cl)cc1)OC1CCN2[C@@H]3C[C@@H](C[C@@H]2C1)N1CCCC[C@@H]1C3 (stereo partly drawn) [Compound M]
Result block: yes

Query block: Say whether its IC50 is strictly beneath 40 µM. Entry: Cc1ccc(/C=C\C(=O)OC2CCN3[C@@H]4C[C@@H](C[C@@H]3C2)N2CCCC[C@@H]2C4)cc1 (stereo partly drawn) [Compound H]
Result block: no

Query block: Say whether its IC50 is strictly beneath 40 µM. Entry: O=C(/C=C\c1ccc(O)c(O)c1)OC1CCN2[C@@H]3C[C@@H](C[C@@H]2C1)N1CCCC[C@@H]1C3 (stereo partly drawn) [Compound E]
Result block: yes

Query block: Say whether its IC50 is strictly beneath 40 µM. Entry: Cc1ccccc1/C=C\C(=O)OC1CCN2[C@@H]3C[C@@H](C[C@@H]2C1)N1CCCC[C@@H]1C3 (stereo partly drawn) [Compound K]
Result block: no

Where do the numbers come from? From patent US10233183B1.
